Could you please report measured pIC50 for the items listed next?
system: K562; test: Antiproliferative activity against human K562 cells after 48 hrs by MTT assay; assay type: functional, cell-based; conditions: K562, 48 h
Please note pIC50 is a logarithmic value: minus log10 of concentration in mol/L. Answer with that number alone.

// query Answer with reported pIC50 of "COc1ccc(-c2ccc3c(c2)C(=O)C(=O)N3Cc2ccc(Cl)cc2)cc1"
// result 6.46

// query State its pIC50: "COc1ccc(CN2C(=O)C(=O)c3cc(-c4ccc(OC(F)(F)F)cc4)ccc32)cc1"
// result 7.22

// query # return recorded pIC50 for entry "COc1ccc(CN2C(=O)C(=O)c3cc(-c4ccc(OC)cc4)ccc32)cc1"
// result 7.52

// query # return recorded pIC50 for entry "COc1ccc(CN2C(=O)C(=O)c3cc(-c4ccc(C(F)(F)F)cc4)ccc32)cc1"
// result 6.46

----------
tested on: HUVEC; test: Cytotoxicity against HUVEC after 48 hrs by MTT assay; type: cell-based; conditions: Homo sapiens
experimental_readout: IC50 (nM)
Give a bare numeral; the unit nM is implied.

// query Determine from records and report IC50 for "COc1ccc(CN2C(=O)C(=O)c3cc(-c4ccc(OC)cc4)ccc32)cc1"
// result 920

----------
system: K562; test: Antiproliferative activity against human K562 cells after 48 hrs by MTT assay; format: functional, cell-based; conditions: K562, 48 h
// returns class 0 unless IC50 is strictly below 400 nM, in which case class 1

// query Below 400 nM on IC50? Entry "COc1ccc(CN2C(=O)C(=O)c3cc(-c4ccc(O)cc4)ccc32)cc1"
// result class 1

// query Field: below-cutoff. Rule: recorded IC50 strictly less than 400 nM. Subject: "COc1ccc(-c2ccc3c(c2)C(=O)C(=O)N3Cc2ccc(C(F)(F)F)cc2)cc1"
// result class 1

// query Find out if reported IC50 for "COc1ccc(CN2C(=O)C(=O)c3cc(-c4ccc(C#N)cc4)ccc32)cc1" is less than 400 nM
// result class 1

// query Determine whether this compound shows IC50 lower than 400 nM (ties excluded): "CCCCc1ccc2c(c1)C(=O)C(=O)N2"
// result class 0

// query Quick check: does "COc1ccc(CN2C(=O)C(=O)c3cc(-c4ccc(F)cc4)ccc32)cc1" have IC50 under 400 nM?
// result class 1

// query I'd appreciate it if you could check whether "COc1ccc(CN2C(=O)/C(=N\O)c3cc(-c4ccc(OC)cc4)ccc32)cc1" has IC50 smaller than 400 nM.
// result class 0

// query Quick check: IC50 of "O=C1Nc2ccc(Br)cc2C1=O" under 400 nM?
// result class 0

// query Record "COc1ccc(-c2ccc3c(c2)C(=O)C(=O)N3Cc2ccc(Br)cc2)cc1" : is its IC50 strictly below 400 nM?
// result class 1

// query Input "COc1ccc(CN2C(=O)C(=O)c3cc(-c4ccc(F)c(Cl)c4)ccc32)cc1" ; condition: IC50 strictly below 400 nM. Does it hold?
// result class 1

// query Please determine if "COc1ccc(CN2C(=O)/C(=C\c3ccccc3)c3cc(-c4ccc(OC)cc4)ccc32)cc1" is below 400 nM in terms of IC50.
// result class 0

// query Find out if reported IC50 for "COc1ccc(CN2C(=O)C(=O)c3cccc(-c4ccc(OC)cc4)c32)cc1" is less than 400 nM
// result class 0

// query Please indicate whether the reported IC50 of "COc1ccc2c(c1)C(=O)C(=O)N2" is strictly below 400 nM.
// result class 0

// query Here's an entry: "COc1ccc(-c2ccc3c(c2)C(=O)C(=O)N3Cc2cc(C)cc(C)c2)cc1" . Is its IC50 below 400 nM?
// result class 1

// query Is IC50 of "CCOC(=O)/C=C1\C(=O)N(Cc2ccc(OC)cc2)c2ccc(-c3ccc(OC)cc3)cc21" strictly below 400 nM?
// result class 0

// query Problem: For the compound "COc1ccc(CN2C(=O)C(=O)c3cc(-c4ccsc4)ccc32)cc1" , is IC50 under 400 nM?
// result class 1

// query Quick check: IC50 of "COc1ccc(CN2C(=O)C(=O)c3cc(-c4ccc(OC(C)C)cc4)ccc32)cc1" under 400 nM?
// result class 1

// query Find out if reported IC50 for "COc1ccc(CN2C(=O)C(=O)c3cc(-c4ccccc4OC)ccc32)cc1" is less than 400 nM
// result class 1

// query For this compound, is IC50 lower than 400 nM? "COc1ccc(CN2C(=O)C(=O)c3ccc(-c4ccc(OC)cc4)cc32)cc1"
// result class 0

// query Strictly below 400 nM in IC50? "COc1ccc(CN2C(=O)C(=O)c3cc(-c4ccccc4)ccc32)cc1"
// result class 1

// query Quick check: does "CCN1C(=O)C(=O)c2cc(-c3ccc(OC)cc3)ccc21" have IC50 under 400 nM?
// result class 0

// query Please indicate whether the reported IC50 of "COc1ccc(-c2ccc3c(c2)C(=O)C(=O)N3Cc2ccc(F)cc2)cc1" is strictly below 400 nM.
// result class 0

// query Lab log: compare recorded IC50 with 400 nM; is it strictly lower for "COc1ccc(-c2ccc3c(c2)C(=O)C(=O)N3Cc2ccccc2Cl)cc1" ?
// result class 1

// query Please indicate whether the reported IC50 of "COc1ccc(-c2ccc3c(c2)C(=O)C(=O)N3Cc2ccc(C#N)cc2)cc1" is strictly below 400 nM.
// result class 1

// query Does the reported IC50 of "COc1ccc(CN2C(=O)C(=O)c3cc(-c4ccc(OC)c(OC)c4)ccc32)cc1" stay below 400 nM?
// result class 1

// query Lab note: IC50 threshold 400 nM. Does this compound come in strictly under it? "COc1ccc(CN2C(=O)C(=O)c3cc(-c4cccc(OC)c4)ccc32)cc1"
// result class 1

// query Does the reported IC50 of "Cc1ccc2c(c1)C(=O)C(=O)N2" stay below 400 nM?
// result class 0

// query Quick check: does "COc1ccc(CN2C(=O)C(=O)c3cc(-c4ccncc4)ccc32)cc1" have IC50 under 400 nM?
// result class 1

// query Determine whether this compound shows IC50 lower than 400 nM (ties excluded): "COc1ccc(-c2ccc3c(c2)C(=O)C(=O)N3Cc2ccc(Cl)c(Cl)c2)cc1"
// result class 0

// query # strict comparison: is reported IC50 < 400 nM? input = "COc1ccc(-c2ccc3c(c2)C(=O)C(=O)N3Cc2ccc(C)cc2)cc1"
// result class 1

// query Please indicate whether the reported IC50 of "O=C1Nc2ccc(F)cc2C1=O" is strictly below 400 nM.
// result class 0

// query Would you kindly verify if IC50 of "COc1ccc(CN2C(=O)C(=O)c3cc(-c4cc(OC)cc(OC)c4)ccc32)cc1" is strictly less than 400 nM?
// result class 0

// query Given COc1ccc(CN2C(=O)C(O)c3cc(-c4ccc(OC)cc4)ccc32)cc1 (stereo not drawn) , is recorded IC50 strictly lower than 400 nM?
// result class 1

// query Strictly below 400 nM in IC50? "COc1ccc(CN2C(=O)C(=O)c3cc(-c4ccc(C(C)(C)C)cc4)ccc32)cc1"
// result class 0

// query Determine if COc1ccc(CN2C(=O)C(C)(O)c3cc(-c4ccc(OC)cc4)ccc32)cc1 (stereo not drawn) shows IC50 strictly lower than 400 nM.
// result class 0

// query Is 400 nM strictly greater than the compound's reported IC50? compound: "COc1ccc(CN2C(=O)C(=O)c3cc(-c4ccc(Cl)cc4)ccc32)cc1"
// result class 1

// query Threshold test, IC50 < 400 nM: "COc1ccc(CN2C(=O)C(F)(F)c3cc(-c4ccc(OC)cc4)ccc32)cc1"
// result class 0

// query Strictly below 400 nM in IC50? "COc1ccc(-c2ccc3c(c2)C(=O)C(=O)N3Cc2ccccc2)cc1"
// result class 0

// query Lab note: confirm whether the reported IC50 for this compound is below 400 nM, equality not counting. compound: "O=C1Nc2ccc(Cl)cc2C1=O"
// result class 0

// query Please let me know if "O=C1Nc2ccc(-c3ccccc3)cc2C1=O" shows IC50 below 400 nM.
// result class 0

// query A record lists "COc1ccc(-c2ccc3c(c2)C(=O)C(=O)N3Cc2ccccc2OC)cc1" . Is its IC50 below 400 nM?
// result class 1

----------
tested on: K562; assay: Antiproliferative activity against human K562 cells after 48 hrs by MTT assay; type: functional, cell-based; conditions: K562, 48 h
experimental_readout: pIC50
Scale for pIC50: -log10 of concentration given in mol/L; no unit attached.

// query For the compound "COc1ccc(-c2ccc3c(c2)C(=O)C(=O)N3)cc1" , give its measured pIC50 value.
// result 5.16

// query In one line, give reported pIC50 of the entry "CC[C@@]1(O)C(=O)OCc2c1cc1n(c2=O)Cc2cc3ccccc3nc2-1" .
// result 7.15

// query Report pIC50 for "COc1ccc(-c2ccc3c(c2)C(=O)C(=O)N3Cc2ccc(OC)c(OC)c2)cc1"
// result 7.22

// query Query pIC50 for "COc1ccc(CN2C(=O)C(=O)c3cc(-c4ccc5ccccc5c4)ccc32)cc1"
// result 6.47

// query Determine its reported pIC50: "COc1ccc(-c2ccc3c(c2)C(=O)C(=O)N3Cc2ccc3c(c2)OCO3)cc1"
// result 7.52

// query Determine its reported pIC50: "COC(=O)/C=C1\C(=O)N(Cc2ccc(OC)cc2)c2ccc(-c3ccc(OC)cc3)cc21"
// result 5.72

// query For the compound "COc1ccc(CN2C(=O)/C(=C\c3ccc(C(F)(F)F)cc3)c3cc(-c4ccc(OC)cc4)ccc32)cc1" , give its reported pIC50.
// result 5.72

// query Identify measured pIC50 corresponding to "COc1ccc(-c2ccc3c(c2)C(=O)C(=O)N3Cc2cccc(Cl)c2)cc1"
// result 6.70

Origin of values: ChEMBL document CHEMBL4270578
